Catalogue of pKd readings, one per entry.
Target: T1, EsCas13d, nuclease-dead (Eubacterium siraeum, UniProt B0MS50, R295A;H300A;R849A;H854A)
T1 sequence: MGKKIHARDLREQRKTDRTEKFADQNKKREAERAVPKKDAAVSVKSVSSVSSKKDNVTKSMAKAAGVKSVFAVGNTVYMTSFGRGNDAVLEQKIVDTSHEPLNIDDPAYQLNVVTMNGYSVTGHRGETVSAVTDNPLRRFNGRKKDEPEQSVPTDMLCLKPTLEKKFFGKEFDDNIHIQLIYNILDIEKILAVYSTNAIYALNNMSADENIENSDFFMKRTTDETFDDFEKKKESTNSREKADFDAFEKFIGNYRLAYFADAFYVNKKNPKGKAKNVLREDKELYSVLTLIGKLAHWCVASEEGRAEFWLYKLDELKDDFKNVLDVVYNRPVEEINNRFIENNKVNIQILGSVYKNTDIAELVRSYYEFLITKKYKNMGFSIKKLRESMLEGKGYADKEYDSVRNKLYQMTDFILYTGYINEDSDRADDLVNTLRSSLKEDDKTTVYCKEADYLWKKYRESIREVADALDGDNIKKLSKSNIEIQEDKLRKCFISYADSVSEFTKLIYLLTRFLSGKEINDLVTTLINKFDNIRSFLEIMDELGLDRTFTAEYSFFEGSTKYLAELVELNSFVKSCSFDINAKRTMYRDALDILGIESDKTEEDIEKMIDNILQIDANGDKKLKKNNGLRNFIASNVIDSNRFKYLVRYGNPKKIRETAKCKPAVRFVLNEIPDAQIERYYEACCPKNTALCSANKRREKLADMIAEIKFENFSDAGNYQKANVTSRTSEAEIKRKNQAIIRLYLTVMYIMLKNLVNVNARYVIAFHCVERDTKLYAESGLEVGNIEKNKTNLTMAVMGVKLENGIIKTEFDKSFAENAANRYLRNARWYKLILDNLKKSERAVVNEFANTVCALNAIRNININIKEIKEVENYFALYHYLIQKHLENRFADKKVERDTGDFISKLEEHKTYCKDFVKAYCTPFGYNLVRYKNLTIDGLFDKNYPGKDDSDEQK
Assay: crRNA (strand 1, pre-loaded); Mg2+; 40 mM Tris-HCl pH 7.5, 150 mM NaCl, 6 mM MgCl2, 1 mM DTT, 0.1% Tween-20, 0.2 mg/ml BSA; 25 C; 10 min per concentration, then washed
Settings: tags: His6-TwinStrep-SUMO cleaved; N-terminal SNAP kept (SNAP-Surface 488); label: 3' end held by stalled T7 RNA polymerase
By convention, pKd is the negative base-10 log of a molar concentration.

1. target 1 MT 5'PFS GAC 3'PFS CUG (mixed) RNA 1: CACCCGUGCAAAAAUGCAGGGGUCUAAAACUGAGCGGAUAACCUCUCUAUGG RNA 2: GGGAAUGGAUCCACAUCUACGAAUUCGACCCAUAGAGAGGUUAUCCGCUCACUGAGAUCGGAAGAGCACACGU | 7.72
2. target 1 U11A,G13C (mixed) RNA 1: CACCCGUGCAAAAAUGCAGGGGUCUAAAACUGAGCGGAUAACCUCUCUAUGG RNA 2: GGGAAUGGAUCCACAUCUACGAAUUCGUACCAUAGAGACGAUAUCCGCUCACCGAGAUCGGAAGAGCACACGU | 7.38
3. target 2 MT 5'PFS CAC 3'PFS AAC (mixed) RNA 1: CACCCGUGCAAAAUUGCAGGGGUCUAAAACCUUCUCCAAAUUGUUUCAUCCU RNA 2: GGGAAUGGAUCCACAUCUACGAAUUCCACAGGAUGAAACAAUUUGGAGAAGAACAGAUCGGAAGAGCACACGU | 8.70
4. target 3 A11C,G14U (mixed) RNA 1: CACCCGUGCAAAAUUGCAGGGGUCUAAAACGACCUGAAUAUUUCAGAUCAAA RNA 2: GGGAAUGGAUCCACAUCUACGAAUUCGUUUUUGAUCUUAACUAUUCAGGUCUGCAGAUCGGAAGAGCACACGU | 7.25
5. target 1 G13A,G15U (mixed) RNA 1: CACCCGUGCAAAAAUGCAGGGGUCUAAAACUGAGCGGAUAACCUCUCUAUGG RNA 2: GGGAAUGGAUCCACAUCUACGAAUUCGUACCAUAGAUAAGUUAUCCGCUCACCGAGAUCGGAAGAGCACACGU | 7.10

Value lookup for pKd; key = target 3 G3C (mixed) RNA 1: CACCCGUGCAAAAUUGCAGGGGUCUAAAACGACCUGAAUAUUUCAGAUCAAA RNA 2: GGGAAUGGAUCCACAUCUACGAAUUCGUUUUUGAUCUGAAAUAUUCAGCUCUGCAGAUCGGAAGAGCACACGU
7.70

And the next one, target 3 G4U,U8A (mixed) RNA 1: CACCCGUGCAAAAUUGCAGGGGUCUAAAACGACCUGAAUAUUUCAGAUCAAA RNA 2: GGGAAUGGAUCCACAUCUACGAAUUCGUUUUUGAUCUGAAAUAAUCAUGUCUGCAGAUCGGAAGAGCACACGU ?
7.52

And the next one, target 1 insU 3' of 17,insU 3' of 1 (mixed) RNA 1: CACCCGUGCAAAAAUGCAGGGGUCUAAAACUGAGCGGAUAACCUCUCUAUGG RNA 2: GGGAAUGGAUCCACAUCUACGAAUUCGUACCAUAGUAGAGGUUAUCCGCUCAUCCGAGAUCGGAAGAGCACACGU ?
7.65
